Attribution: ChEMBL document CHEMBL2016476

test: Octanol-water partition coefficient, log D of the compound at pH 7.4; type: physicochemical
endpoint: logD

Example entries and their recorded answers appear below.
>  <smiles-string>
COc1ccc([P+](CCCCCCCCCCN2C(=O)c3ccccc3C2=O)(c2ccc(OC)cc2)c2ccc(OC)cc2)cc1

>  <logD>
3.19

$$$$
>  <smiles-string>
CCCC[P+](CCCC)(CCCC)CCCCCCCCCCN1C(=O)c2ccccc2C1=O

>  <logD>
3.68

$$$$
>  <smiles-string>
CC1=C(CCCCCCCCCC[P+](c2ccccc2)(c2ccccc2)c2ccccc2)C(=O)c2ccccc2C1=O

>  <logD>
3.97

$$$$
>  <smiles-string>
O=C1c2ccccc2C(=O)N1CCCC[P+](c1ccccc1)(c1ccccc1)c1ccccc1

>  <logD>
0.01

$$$$
>  <smiles-string>
O=C1C=C(CCCCCCCCCC[P+](c2ccc(F)cc2)(c2ccc(F)cc2)c2ccc(F)cc2)C(=O)c2ccccc21

>  <logD>
1.66

$$$$

Lab note: O=C1C=C(NCC[P+](c2ccccc2)(c2ccccc2)c2ccccc2)C(=O)c2ccccc21 gave logD of -1.08

logD reported for this molecule COc1ccc([P+](CCCCCCCCCCNC2=CC(=O)c3ccccc3C2=O)(c2ccc(OC)cc2)c2ccc(OC)cc2)cc1 : 4.37

For reference, reported logD for CC1=C(C[P+](c2ccccc2)(c2ccccc2)c2ccccc2)C(=O)c2ccccc2C1=O stands at 1.89
